- ASSAYED SYSTEM: dopamine D2 receptors (Homo sapiens (Human))
- RUN DESCRIPTION: G protein Gαi1-γ9 dissociation BRET, dopamine D2 receptor functional activity
- Assay type: cell-based
- STUDY CONDITIONS: HEK-293T; I-1 to 19 n=3, I-20 to 27 single determination; read-out: Gai1 BRET EC50
# pEC50 annotations
Scale note: pEC50 = -log10(concentration in M).

Here's what some known entries look like.
>  <COMPOUND>
O=C(N[C@H]1CC[C@H](CCN2CCN3c4cccc5[nH]cc(c45)CC3C2)CC1)N1CCCCC1 (stereo partly shown) [Compound I-12]

>  <pEC50>
7.76

$$$$
>  <COMPOUND>
O=c1ccc2ccc(OCCCCN3CCN4c5cccc6[nH]cc(c56)CC4C3)cc2[nH]1 (single isomer, unassigned; (-)) [(−)-I-2]

>  <pEC50>
8.52

$$$$
>  <COMPOUND>
O=S(=O)(N[C@H]1CC[C@H](CCN2CCN3c4cccc5[nH]cc(c45)CC3C2)CC1)c1ccccc1 (stereo partly shown) [Compound I-15]

>  <pEC50>
8.58

$$$$
>  <COMPOUND>
OC(CCCN1CCN2c3cccc4[nH]cc(c34)CC2C1)c1ccc(F)cc1 (stereo not shown) [Compound I-25]

>  <pEC50>
8.13

$$$$
>  <COMPOUND>
Cn1cc2c3c(cccc31)N1CCN(C/C=C/COc3ccc4c(c3)NC(=O)CC4)CC1C2 (stereo not shown) [Compound I-22]

>  <pEC50>
7.42

$$$$
>  <COMPOUND>
O=c1ccc2ccc(OCCCN3CCN4c5cccc6[nH]cc(c56)CC4C3)cc2[nH]1 (stereo not shown) [Compound I-8]

>  <pEC50>
7.41

$$$$

API: the following record is the query input.
Identify the reported pEC50 for the following entry. CN(C)C(=O)N[C@H]1CC[C@H](CCN2CCN3c4cccc5[nH]cc(c45)C[C@@H]3C2)CC1 [(+)-I-10] 8.02

====

- RUN DESCRIPTION: Brain permeability in C57 male mice (plasma and brain tissue concentration)
- Assay type: in vivo
- STUDY CONDITIONS: mouse, plasma, ip, intraperitoneal injection 1 mg/kg, read-out: Drug concentration at 2.0 h in plasma
- Protocol: • 2. Test of the brain permeability of compound (−)-I-10 administered to C57 male mice by single intragastric administration, intraperitoneal injection and intravenous injection Using the same method as the pharmacokinetic experiment, 0.030 mL of blood was taken from each animal through the orbit at 0.5 and 2.0 hours, respectively, and anticoagulated with EDTA-K2. […] The drug concentrations in plasma and brain tissue were analyzed by LC/MS/MS and compared.
RECORDED ENDPOINT: concentration at 2 h (ng/mL)
Could you give me the number in ng/mL? Just the number is fine.

Identify the reported concentration at 2 h for the following entry. CN(C)C(=O)N[C@H]1CC[C@H](CCN2CCN3c4cccc5[nH]cc(c45)C[C@H]3C2)CC1 [(−)-I-10] 13.8

====

- ASSAYED SYSTEM: dopamine D2 receptors (Homo sapiens (Human), UniProt P14416)
- Sequence (P14416 whole entry): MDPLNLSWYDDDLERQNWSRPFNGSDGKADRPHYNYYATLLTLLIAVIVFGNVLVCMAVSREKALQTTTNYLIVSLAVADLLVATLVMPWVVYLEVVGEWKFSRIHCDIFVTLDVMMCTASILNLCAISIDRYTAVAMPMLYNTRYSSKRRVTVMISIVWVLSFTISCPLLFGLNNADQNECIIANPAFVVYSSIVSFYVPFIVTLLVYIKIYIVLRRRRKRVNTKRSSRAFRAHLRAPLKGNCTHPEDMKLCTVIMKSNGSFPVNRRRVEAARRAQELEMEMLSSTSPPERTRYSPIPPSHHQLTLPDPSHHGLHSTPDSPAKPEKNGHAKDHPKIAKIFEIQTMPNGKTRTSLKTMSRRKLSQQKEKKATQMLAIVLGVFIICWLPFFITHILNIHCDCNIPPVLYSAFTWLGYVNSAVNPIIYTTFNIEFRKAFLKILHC
- RUN DESCRIPTION: β-arrestin2 recruitment BRET, dopamine D2 receptor functional activity
- Type: cell-based
- STUDY CONDITIONS: HEK-293T; I-1 to 19 n=3, I-20 to 27 single determination; read-out: β-arrestin2 BRET EC50
EC50 class ranges: lower level (below 10 nM), middle level (10 nM to below 60 nM), upper level (60 nM or more)

Using the reported EC50, which band applies to O=C1CCc2ccc(OCCCN3CCN4c5cccc6[nH]cc(c56)CC4C3)cc2N1 (stereo not shown) ? upper level

Using the reported EC50, which band applies to O=C(N[C@H]1CC[C@H](CCN2CCN3c4cccc5[nH]cc(c45)CC3C2)CC1)c1cc2ccccc2[nH]1 (stereo partly shown) ? upper level

Using the reported EC50, which band applies to OC(CCCN1CCN2c3cccc4[nH]cc(c34)CC2C1)c1ccc(F)cc1 (stereo not shown) ? lower level

Using the reported EC50, which band applies to O=C1CCc2ccc(OCCCCN3CCN4c5cccc6[nH]cc(c56)CC4C3)cc2N1 (stereo not shown) ? middle level

Using the reported EC50, which band applies to CN(C)C(=O)N[C@H]1CC[C@H](CCN2CCN3c4cccc5[nH]cc(c45)CC3C2)CC1 (stereo partly shown) ? lower level

====

- ASSAYED SYSTEM: dopamine D2 receptors (Homo sapiens (Human))
- RUN DESCRIPTION: Radioligand competition binding, affinity for dopamine D2 receptors ([3H]-Methylspiperone)
- STUDY CONDITIONS: [3H]-Methylspiperone (0.3-0.5 nM), HEK-293T membranes; I-1 to 19 n=3, I-20 to 27 single determination
RECORDED ENDPOINT: pKi
Scale note: pKi = -log10(concentration in M).

Here's what some known entries look like.
>  <COMPOUND>
Cc1nc2cc(OCCCCN3CCN4c5cccc6[nH]cc(c56)CC4C3)ccc2o1 (centres unmarked) [Compound I-4]

>  <pKi>
7.52

$$$$
>  <COMPOUND>
Cn1cc2c3c(cccc31)N1CCN(C/C=C/COc3ccc4c(c3)NC(=O)CC4)CC1C2 (centres unmarked) [Compound I-22]

>  <pKi>
6.75

$$$$

Name the value of pKi reported for O=C(N[C@H]1CC[C@H](CCN2CCN3c4cccc5[nH]cc(c45)CC3C2)CC1)c1cc2ccccc2[nH]1 (some centres unmarked) [Compound I-13] when tested on dopamine D2 receptors (Homo sapiens (Human)). 7.79

Name the value of pKi reported for O=c1ccc2ccc(OCCCCN3CCN4c5cccc6[nH]cc(c56)CC4C3)cc2[nH]1 (racemic) [Compound I-2] when tested on dopamine D2 receptors (Homo sapiens (Human)). 8.04

Name the value of pKi reported for O=S(=O)(N[C@H]1CC[C@H](CCN2CCN3c4cccc5[nH]cc(c45)CC3C2)CC1)c1ccccc1 (some centres unmarked) [Compound I-15] when tested on dopamine D2 receptors (Homo sapiens (Human)). 7.11

Name the value of pKi reported for Cc1nc2n(c(=O)c1CCN1CCN3c4cccc5[nH]cc(c45)CC3C1)CCCC2 (centres unmarked) [Compound I-17] when tested on dopamine D2 receptors (Homo sapiens (Human)). 7.25

Name the value of pKi reported for CN(C)C(=O)N[C@H]1CC[C@H](CCN2CCN3c4cccc5[nH]cc(c45)C[C@H]3C2)CC1 [(−)-I-10] when tested on dopamine D2 receptors (Homo sapiens (Human)). 7.65

Name the value of pKi reported for Cn1cc2c3c(cccc31)N1CCN(CCCCOc3ccc4ccc(=O)[nH]c4c3)CC1C2 (centres unmarked) [Compound I-18] when tested on dopamine D2 receptors (Homo sapiens (Human)). 7.22

Name the value of pKi reported for O=c1ccc2ccc(OCCCN3CCN4c5cccc6[nH]cc(c56)CC4C3)cc2[nH]1 (centres unmarked) [Compound I-8] when tested on dopamine D2 receptors (Homo sapiens (Human)). 9.31

Name the value of pKi reported for O=C(N[C@H]1CC[C@H](CCN2CCN3c4cccc5[nH]cc(c45)CC3C2)CC1)N1CCCCC1 (some centres unmarked) [Compound I-12] when tested on dopamine D2 receptors (Homo sapiens (Human)). 7.57

Name the value of pKi reported for O=C(N[C@H]1CC[C@H](CCN2CCN3c4cccc5[nH]cc(c45)CC3C2)CC1)c1ccccc1 (some centres unmarked) [Compound I-14] when tested on dopamine D2 receptors (Homo sapiens (Human)). 7.39

Name the value of pKi reported for Cn1cc2c3c(cccc31)N1CCN(C/C=C/COc3ccc4ccc(=O)[nH]c4c3)CC1C2 (centres unmarked) [Compound I-23] when tested on dopamine D2 receptors (Homo sapiens (Human)). 7.00

Name the value of pKi reported for O=C1CCc2ccc(OCCCCN3CCN4c5cccc6[nH]cc(c56)CC4C3)cc2N1 (centres unmarked) [Compound I-1] when tested on dopamine D2 receptors (Homo sapiens (Human)). 7.47

Name the value of pKi reported for Cc1noc2cc(OCCCCN3CCN4c5cccc6[nH]cc(c56)CC4C3)ccc12 (centres unmarked) [Compound I-5] when tested on dopamine D2 receptors (Homo sapiens (Human)). 7.43

Name the value of pKi reported for O=C1CCc2ccc(OCCCN3CCN4c5cccc6[nH]cc(c56)CC4C3)cc2N1 (centres unmarked) [Compound I-7] when tested on dopamine D2 receptors (Homo sapiens (Human)). 6.40

Name the value of pKi reported for CN(C)C(=O)N[C@H]1CC[C@H](CCN2CCN3c4cccc5c4c(cn5C)CC3C2)CC1 (some centres unmarked) [Compound I-19] when tested on dopamine D2 receptors (Homo sapiens (Human)). 7.28

Name the value of pKi reported for O=c1ccc2ccc(OCCCCN3CCN4c5cccc6[nH]cc(c56)CC4C3)cc2[nH]1 (single isomer, unassigned; (-)) [(−)-I-2] when tested on dopamine D2 receptors (Homo sapiens (Human)). 8.76

Name the value of pKi reported for CN(C)C(=O)N[C@H]1CC[C@H](CCN2CCN3c4cccc5[nH]cc(c45)C[C@@H]3C2)CC1 [(+)-I-10] when tested on dopamine D2 receptors (Homo sapiens (Human)). 5.95

Name the value of pKi reported for c1cc2c3c(c[nH]c3c1)CC1CN(CCCCOc3ccc4c(c3)OCC4)CCN21 (centres unmarked) [Compound I-6] when tested on dopamine D2 receptors (Homo sapiens (Human)). 7.29

Name the value of pKi reported for O=c1ccc2ccc(OCCCCN3CCN4c5cccc6[nH]cc(c56)CC4C3)cc2[nH]1 (single isomer, unassigned; (+)) [(+)-I-2] when tested on dopamine D2 receptors (Homo sapiens (Human)). 8.05

Where do these numbers come from? They come from patent US20240124456A1.
